- TARGET_ENTITY: T1, GFP-9S library array, motif 4 ND N98Q;D124N (synthetic construct, N98Q;D124N)
- T1 chain: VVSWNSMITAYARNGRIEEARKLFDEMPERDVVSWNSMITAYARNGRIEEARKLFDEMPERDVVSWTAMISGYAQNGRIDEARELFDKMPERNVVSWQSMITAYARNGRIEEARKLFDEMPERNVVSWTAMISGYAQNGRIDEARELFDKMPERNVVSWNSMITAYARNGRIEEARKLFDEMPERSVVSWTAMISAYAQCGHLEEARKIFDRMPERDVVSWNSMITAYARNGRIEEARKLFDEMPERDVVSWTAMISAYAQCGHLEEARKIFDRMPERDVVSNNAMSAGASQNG
- PROTOCOL_SUMMARY: high-throughput RNA pulldown from lysate on Ni-NTA beads; HRP: 50 mM Tris pH 8, 150 mM NaCl, 1 mM beta-mercaptoethanol, 50 ug/ml BSA, 3 ug/ml yeast RNA, 0.5% heparin; ITC and FP: Tris pH 8, 200 mM KCl, 5% glycerol; MST: 50 mM Tris pH 8, 200 mM NaCl, 1 mM DTT, BSA, heparin, 0.05% Tween 20
- CONDITION_CONTEXT: tags: N-terminal His-eGFP; label: 5' IRDye 800CW
Documented pKd across a set of binders
Expect pKd as a plain number equal to -log10 of the molar concentration.

# BINDER, VAL
records = [
    ("AUUAUACGUGA (ssRNA) [IR-rpoA-U]", 7.00),
]

Lab note: next binder to report on.
Data request: Assign pKd to the following record: AUUAAACGUGA (ssRNA) [IR-rpoA-A]
Data returned: 6.93
